Target: p53 (Homo sapiens, UniProt P04637)
Sequence (P04637 whole entry): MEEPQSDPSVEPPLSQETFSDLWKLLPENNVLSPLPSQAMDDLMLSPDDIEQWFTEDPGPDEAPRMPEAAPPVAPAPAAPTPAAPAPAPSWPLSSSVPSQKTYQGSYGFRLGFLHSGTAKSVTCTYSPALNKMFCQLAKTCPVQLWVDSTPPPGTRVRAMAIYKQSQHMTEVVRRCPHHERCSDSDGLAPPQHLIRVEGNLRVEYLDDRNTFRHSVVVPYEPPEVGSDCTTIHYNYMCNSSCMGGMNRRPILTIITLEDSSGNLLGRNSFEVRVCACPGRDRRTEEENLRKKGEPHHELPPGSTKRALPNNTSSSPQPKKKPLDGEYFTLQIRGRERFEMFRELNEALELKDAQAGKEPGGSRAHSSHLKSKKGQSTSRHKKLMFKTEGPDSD
OBSERVATION TYPE: Kd
Please don't drop the unit; write it after the number.

Which Kd reading was recorded for the compound `COc1c(O)cc2oc(-c3ccccc3)cc(=O)c2c1O` ?
70.7 µM
